TGI values, listed per item
# Test system: LXFL 529 NSCLC
# procedure_summary: NCI tumour cell line growth inhibition, 48 h

| molecule | assay_system | TGI |
| --- | --- | --- |
| O=C(NCCCCCCNC(=O)OCCSCCn1cc(C(=O)NC(=O)OCc2ccccc2)c(=O)[nH]c1=O)OCCSCCn1cc(C(=O)NC(=O)OCc2ccccc2)c(=O)[nH]c1=O | LXFL 529 NSCLC | > 100 µM |
| Cn1ccc2c(C(=O)c3ccccc3)cccc2c1=O | LXFL 529 NSCLC | > 100 µM |
| O=C(NC1C=Nc2ccc([N+](=O)[O-])cc2NC1=O)c1cc(Cl)cc([N+](=O)[O-])c1 (centres undefined) | LXFL 529 NSCLC | > 100 µM |
| COc1ccc(S(=O)(=O)N/N=C/c2cc(I)cc([N+](=O)[O-])c2O)cc1OC | LXFL 529 NSCLC | 70.3 µM |
